The following binders are shown together with reported Kd values.
# TARGET_ENTITY: … (Plasmodium falciparum)
# EXPERIMENT_SUMMARY: SPR, antibody on chip
Please respond with the number in µM and leave the unit unwritten.

Worked examples follow.
BINDER	OBSERVED_VALUE
AB-007071 (antibody, V domains shown) VH: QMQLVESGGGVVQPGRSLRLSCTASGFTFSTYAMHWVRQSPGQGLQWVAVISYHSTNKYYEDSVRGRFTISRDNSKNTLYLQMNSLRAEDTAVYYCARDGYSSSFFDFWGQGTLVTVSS VL: DIQMTQSPSTLSASVGDRVAITCRASQSISRWLAWYQQQPGKAPKLLMSGASSLESGVPSRFSGSGSGTEFTLTISSLQPDDFATYYCQHYNSYFVTFGQGTKVEIK	23.8
AB-007029 (antibody, V domains shown) VH: QVQLVESGGGVVQPGRSLRLSCTASGFTFSTYAMHWVRQSPGQGLQWVAVISYHSTNKYYEDSVRGRFTISRDNSKNTLYLQMNSLRAEDTAVYYCARDGYSSSFFDFWGQGTLVTVSS VL: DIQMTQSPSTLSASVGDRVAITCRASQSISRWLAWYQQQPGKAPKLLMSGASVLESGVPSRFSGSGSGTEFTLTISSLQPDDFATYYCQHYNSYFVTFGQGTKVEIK	26.2
AB-007042 (antibody, V domains shown) VH: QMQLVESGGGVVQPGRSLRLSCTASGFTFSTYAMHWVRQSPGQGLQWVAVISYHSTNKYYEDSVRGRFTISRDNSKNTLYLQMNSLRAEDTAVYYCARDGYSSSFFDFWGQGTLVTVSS VL: DIQMTQSPSTLSASVGDRVAITCRASQDISRWLAWYQQQPGKAPKLLMSGASVLESGVPSRFSGSGSGTEFTLTISSLQPDDFATYYCQHYNSYFVTFGQGTKVEIK	11.7
AB-007063 (antibody, V domains shown) VH: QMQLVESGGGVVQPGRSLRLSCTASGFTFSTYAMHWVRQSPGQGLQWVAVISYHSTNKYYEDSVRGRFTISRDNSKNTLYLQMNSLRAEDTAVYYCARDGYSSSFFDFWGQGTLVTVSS VL: DIQMTQSPSTLSASVGDRVAITCRASQSISRWLAWYQQQPGKAPKLLMAGASVLESGVPSRFSGSGSGTEFTLTISSLQPDDFATYYCQHYNSYFVTFGQGTKVEIK	12.2

Challenge: Specify reported Kd for the binder shown: AB-007057 (antibody, V domains shown) VH: QMQLVESGGGVVQPGRSLRLSCTASGFTFSTYAMHWVRQSPGQGLQWVAVISYHSTNKYYEDSVRGRFTISRDNSKNTLYLQMNSLRAEDTAVYYCARDGYHSSFFDFWGQGTLVTVSS VL: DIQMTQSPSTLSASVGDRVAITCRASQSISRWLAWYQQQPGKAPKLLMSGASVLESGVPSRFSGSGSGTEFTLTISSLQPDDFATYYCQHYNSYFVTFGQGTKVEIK
Response given: 20.1

Measured values drawn from patent US20220195023A1 for this set.
